TARGET_OR_TEST_SYSTEM: Pyruvate kinase PKM (Homo sapiens, UniProt P14618)
Sequence (P14618 whole entry): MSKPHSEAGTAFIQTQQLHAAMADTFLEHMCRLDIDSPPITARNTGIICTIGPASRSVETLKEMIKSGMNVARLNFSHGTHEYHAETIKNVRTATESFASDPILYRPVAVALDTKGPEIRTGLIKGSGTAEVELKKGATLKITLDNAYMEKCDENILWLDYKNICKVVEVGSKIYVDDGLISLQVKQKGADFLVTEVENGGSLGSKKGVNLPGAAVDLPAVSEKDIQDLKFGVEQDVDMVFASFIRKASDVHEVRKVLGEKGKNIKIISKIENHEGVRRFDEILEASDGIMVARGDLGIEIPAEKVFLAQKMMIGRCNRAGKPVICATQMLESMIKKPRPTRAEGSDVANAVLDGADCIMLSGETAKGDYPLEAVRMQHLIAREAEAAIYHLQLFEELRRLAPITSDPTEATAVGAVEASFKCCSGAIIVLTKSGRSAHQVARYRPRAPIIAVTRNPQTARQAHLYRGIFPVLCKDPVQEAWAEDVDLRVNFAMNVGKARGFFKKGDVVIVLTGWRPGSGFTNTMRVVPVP
MEASUREMENT_NOTES: Inhibition of human N-terminal His tagged PKM2 expressed in Escherichia coli Gly128, Ser205, Lys367, Gly208, Ile335, Gly363, Asn75, Ser362, lle51 residues
RESULT_TYPE: pIC50
pIC50 is defined as minus the log10 of a concentration measured in mol/L.

Lookup: Look up pIC50 for this compound: O=C1C=C(C(CSC(=S)NN2CCOSS2)SC(=S)NN2CCOSS2)C(=O)c2ccccc21 (stereo unspecified)
Found: 6.02

###

TARGET_OR_TEST_SYSTEM: Pyruvate kinase PKM (Homo sapiens, UniProt P14618)
MEASUREMENT_NOTES: Activation of recombinant PKM2 (unknown origin) Phe26, Tyr390, Glu397, Asp354, Leu353 residues
RESULT_TYPE: EC50
Please format your answer as a value with the unit trailing.

Lookup: Field request: EC50 | item: O=c1c(O)c(-c2cc(O)c(O)c(O)c2)oc2cc(O)cc(O)c12 [MYRICETIN]
Found: 510 nM

###

TARGET_OR_TEST_SYSTEM: Pyruvate kinase PKM (Homo sapiens)
MEASUREMENT_NOTES: Inhibition of recombinant PKM2 (unknown origin) Ile335, Lys367, Lys207, Thr129, Lys206, Lys207, Asn75, Hie78 residues
RESULT_TYPE: IC50 (µM)
The response must be a number in µM with no trailing unit.

Lookup: GET /values?readout=IC50&item= O=c1cc(-c2ccccc2)oc2cc(O)ccc12 [7-HYDROXYFLAVONE]
Found: 2.12

###

TARGET_OR_TEST_SYSTEM: Pyruvate kinase PKM (Homo sapiens)
MEASUREMENT_NOTES: Inhibition of PKM2 (unknown origin)
RESULT_TYPE: pIC50
# log scale: pIC50 equals minus log10 of the concentration in mol/L

Lookup: Lab note: need pIC50 for NCCCCNCCCN [SPERMIDINE] on Pyruvate kinase PKM (Homo sapiens), anyone have it?
Found: 5.85

Lookup: Provide value of pIC50 for this record tested with Pyruvate kinase PKM (Homo sapiens): CC(C)=CC[C@H](O)C1=CC(=O)c2c(O)ccc(O)c2C1=O [ALKANNIN]
Found: 6.05

Lookup: Query the reported pIC50 for Pyruvate kinase PKM (Homo sapiens); item: CC(C)=CC[C@@H](O)C1=CC(=O)c2c(O)ccc(O)c2C1=O [SHIKONIN]
Found: 6.10

###

TARGET_OR_TEST_SYSTEM: Pyruvate kinase PKM (Homo sapiens)
MEASUREMENT_NOTES: Activation of PKM2 (unknown origin) Leu353, Tyr390, Phe26, Glu397, Lys311, Asp354 residues
RESULT_TYPE: EC50 (nM)
Give the quantity in nM, number only.

Lookup: What measured EC50 goes with "O=C(c1ccc(NS(=O)(=O)c2cccc3cccnc23)cc1)N1CCC(C(=S)SCc2cccnc2)CC1" ?
Found: 56

###

pEC50 overview
TARGET_OR_TEST_SYSTEM: Pyruvate kinase PKM (Homo sapiens)
MEASUREMENT_NOTES: Activation of PKM2 (unknown origin)
pEC50: −log10 of the molar value.

O=C(c1ccc(NS(=O)(=O)c2cccc3cccnc23)cc1)N1CCC(O)(c2cccc(F)c2F)CC1; > 7.00
[2H]C([2H])(c1cc(F)cc(F)c1)N1CCN(C(=O)c2ccc(NS(=O)(=O)c3cccc4cccnc34)cc2)CC1; > 7.00
COc1ccc(S(=O)(=O)c2ccc(S(=O)(=O)c3cccc4c3OCCO4)c3nsnc23)cc1; > 7.00
O=C(c1ccc(NS(=O)(=O)c2cccc3cccnc23)cc1)N1CC(O)(Cc2ccccc2)C1; > 7.00
O=P(O)(O)OC[C@H]1O[C@](O)(COP(=O)(O)O)[C@@H](O)[C@@H]1O; 7.64

Lookup: Quick check: pEC50 of "N[C@@H](CO)C(=O)O" ?
Found: 2.89

###

Form field: IC50 (one value per entry).
TARGET_OR_TEST_SYSTEM: Pyruvate kinase PKM (Homo sapiens)
MEASUREMENT_NOTES: Inhibition of human N-terminal 6x-His tagged PKM2 expressed Escherichia coli incubated for 60 mins in absence of FBP by LDH-coupled assay
Provide only the numeric value, understood in µM.

CC1=CC(=O)c2ccccc2C1=O; 150

Lookup: Query: IC50; subject: "Cc1cc(N)c2ccccc2c1O"
Found: 28

###

TARGET_OR_TEST_SYSTEM: Pyruvate kinase PKM (Homo sapiens, UniProt P14618)
MEASUREMENT_NOTES: Activation of PKM2 (unknown origin) Phe26, Tyr390, Glu397, Leu353 residues
RESULT_TYPE: pEC50
Note: pEC50 values are expressed as the negative base-10 logarithm of concentration in M.

Lookup: Given the molecule "Cc1cc2c(s1)c1cnn(Cc3ccccc3F)c(=O)c1n2C" , what is its reported pEC50?
Found: 7.42

###

TARGET_OR_TEST_SYSTEM: Pyruvate kinase PKM (Homo sapiens)
MEASUREMENT_NOTES: Inhibition of PKM2 (unknown origin) Ser205, Lys207, Hie78, Lys367, Asn75, Ile51, Thr129 residues
RESULT_TYPE: IC50 (nM)
A number alone suffices; assume nM.

Lookup: Find IC50 (Pyruvate kinase PKM (Homo sapiens)) for the entry "COc1c(O)cc(O)c2c(=O)cc(-c3ccccc3)oc12"
Found: 2010

###

TARGET_OR_TEST_SYSTEM: Pyruvate kinase PKM (Homo sapiens, UniProt P14618)
MEASUREMENT_NOTES: Inhibition of recombinant PKM2 (unknown origin) Thr129, Ser205, Hie78, Lys367, Ala366, Gly52 residues
RESULT_TYPE: pIC50
Scale note: pIC50 = -log10(concentration in M).

Lookup: Fill in: pIC50 of O=c1cc(-c2ccccc2)oc2cccc(O)c12 [5-HYDROXYFLAVONE] is ___
Found: 5.86

###

TARGET_OR_TEST_SYSTEM: Pyruvate kinase PKM (Homo sapiens, UniProt P14618)
MEASUREMENT_NOTES: Inhibition of recombinant PKM2 (unknown origin) Gly128, Lys207, Hie78, Asn75, Ile51, Lys367, Gly79 residues
RESULT_TYPE: pIC50
Kindly note that pIC50 refers to -log10 of the concentration in mol/L and answer with the value alone.

Lookup: Item: O=c1cc(-c2ccccc2)oc2ccc(O)cc12 [6-HYDROXYFLAVONE] Test system: Pyruvate kinase PKM (Homo sapiens, UniProt P14618) Read-out: pIC50 Value: ?
Found: 5.91

###

TARGET_OR_TEST_SYSTEM: Pyruvate kinase PKM (Homo sapiens, UniProt P14618)
MEASUREMENT_NOTES: Inhibition of PKM2 (unknown origin) Ala366, Hie78, Asn75, Lys207, Gly363 residues
RESULT_TYPE: IC50

Lookup: What IC50 appears in the records for this compound with Pyruvate kinase PKM (Homo sapiens, UniProt P14618)? O=C1CCC[C@@H]2[C@H]3CCC[N+]4([O-])CCC[C@@H](CN12)[C@@H]34 (stereo partly specified) [OXYMATRINE]
Found: < 5 µM

###

TARGET_OR_TEST_SYSTEM: Pyruvate kinase PKM (Homo sapiens, UniProt P14618)
MEASUREMENT_NOTES: Activation of PKM2 (unknown origin) Glu397, Phe26, Tyr390, Leu353 residues
RESULT_TYPE: pEC50
Please note pEC50 is a logarithmic value: minus log10 of concentration in mol/L. Answer with that number alone.

Lookup: Which measured pEC50 value corresponds to "Cc1ccc(NS(=O)(=O)c2cc3c(cc2C)NC(=O)CC3)cc1Cl" ?
Found: 7.05

###

TARGET_OR_TEST_SYSTEM: Pyruvate kinase PKM (Homo sapiens, UniProt P14618)
MEASUREMENT_NOTES: Inhibition of recombinant PKM2 (unknown origin) Ser362, Ser205, Gly128, Lys207, Asp177, Hie84, Arg120, Ile51, Lys367 residues
RESULT_TYPE: IC50 (nM)
Report only the number, with the unit nM understood.

Lookup: Quick check: IC50 of O=C(O[C@@H]1Cc2c(O)cc(O)cc2O[C@H]1c1ccc(O)c(O)c1)c1cc(O)c(O)c(O)c1 [(-)-CATECHINGALLATE] ?
Found: 850

###

TARGET_OR_TEST_SYSTEM: Pyruvate kinase PKM (Homo sapiens, UniProt P14618)
MEASUREMENT_NOTES: Inhibition of human pyruvate kinase in embryonic cells
Type: cell-based, Embryo
RESULT_TYPE: IC50 (µM)
Just the number please, in µM, no unit attached.

Lookup: Please give the measured IC50 for this compound: "O=C(O)c1ccc(SC2=NS(=O)(=O)c3ccccc32)cc1"
Found: 16.3
